# Test Details: Antagonist activity against HIV-1 Vif in human CEM cells assessed as inhibition of viral infection
Endpoint Name: IC50 (µM)

> print(dat)
                         structure.notation  observed.measurement
1  COc1ccccc1NC(=O)c1ccccc1Sc1ccc([N+](=O)[O-])cc1                   4.5
